Each recorded value in this set is attributed to patent US20070249682A1.

measured.target: CD40:CD154 interaction (Homo sapiens, UniProt P29965)
Construct: made in house; host or cells: Pichia (CD40-Ig only)
Sequence (P29965 116-261 limits assumed): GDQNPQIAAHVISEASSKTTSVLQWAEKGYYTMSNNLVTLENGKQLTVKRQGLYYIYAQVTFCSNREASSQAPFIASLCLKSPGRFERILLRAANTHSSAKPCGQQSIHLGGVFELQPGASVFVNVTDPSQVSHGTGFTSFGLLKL
procedure.text: Binding assay (ELISA): compound binds CD154 and inhibits binding of biotin-CD154 to immobilized CD40-Ig (Example 7)
experimental.setup: compounds 'shown to have' the IC50 range; assay of Example 7, top concentration 125 μM; read-out: IC50 for CD40:CD154 binding interruption

>  <compound>
O=C(NCc1ccc2ccccc2c1)c1cc(-c2cc(C(=O)N[C@H](C(=O)O)C3CCCCC3)nc(C(=O)N3CCC[C@H]3CN3CCCC3)c2)cc(C(=O)N2CCC[C@H]2CN2CCCC2)n1

>  <IC50>
50 to 125 µM

$$$$
>  <compound>
O=C(NCCC(c1ccccc1)c1ccc([N+](=O)[O-])cc1)c1cc(-c2cc(C(=O)NC(C(=O)O)C3CCCCC3)nc(C(=O)N3CCCC3CN3CCCC3)c2)cc(C(=O)N2CCCC2CN2CCCC2)n1 (stereo not shown)

>  <IC50>
< 50 µM

$$$$
>  <compound>
Nc1cccc(C(CCNC(=O)c2cc(-c3cc(C(=O)NC(C(=O)O)C4CCCCC4)nc(C(=O)N4CCCC4CN4CCCC4)c3)cc(C(=O)N3CCCC3CN3CCCC3)n2)c2ccccc2)c1 (stereo not shown)

>  <IC50>
50 to 125 µM

$$$$
>  <compound>
O=C(NCCCc1ccccc1)c1cc(-c2cc(C(=O)NC(C(=O)O)C3CCCCC3)nc(C(=O)N3CCCC3CN3CCCC3)c2)cc(C(=O)N2CCCC2CN2CCCC2)n1 (stereo not shown)

>  <IC50>
< 50 µM

$$$$
>  <compound>
O=C(NCCCc1ccc([N+](=O)[O-])cc1)c1cc(-c2cc(C(=O)NC(C(=O)O)C3CCCCC3)nc(C(=O)N3CCCC3CN3CCCC3)c2)cc(C(=O)N2CCCC2CN2CCCC2)n1 (stereo not shown)

>  <IC50>
50 to 125 µM

$$$$
>  <compound>
O=C(Nc1cccc(S(=O)(=O)Nc2cc3ccccc3cc2C(=O)O)c1)Nc1cccc(S(=O)(=O)Nc2cc3ccccc3cc2C(=O)O)c1 [BIO-002108-00, reference compound]

>  <IC50>
< 50 µM

$$$$
>  <compound>
Nc1ccc(CCCNC(=O)c2cc(-c3cc(C(=O)NC(C(=O)O)C4CCCCC4)nc(C(=O)N4CCCC4CN4CCCC4)c3)cc(C(=O)N3CCCC3CN3CCCC3)n2)cc1 (stereo not shown)

>  <IC50>
50 to 125 µM

$$$$
